- Tested on: NCI-H226 lung
- Assay Explanation: NCI-60 one-dose screen, 48 h (100 = growth as untreated, 0 = no growth, -100 = all killed)
- Measurement Parameters: 10 µM unless noted
This is part of a sample that, as a whole, favours compounds with a hit. Of some 83,000 tested, about 20% had one in any assay.
Classification field: satisfied = growth at or over 90%; not satisfied = growth under 90%.

[
  {
    "Molecule Smiles": "Nc1nccc2c1ccn2-c1ccc(NC(=O)Nc2cccc(C(F)(F)F)c2)cc1",
    "Group": "not satisfied"
  },
  {
    "Molecule Smiles": "O=C(Nc1ccc(-n2cc(-c3ccncc3)c(-c3ccc(O)c(Cl)c3)n2)cc1)c1ccc(Cl)c(C(F)(F)F)c1",
    "Group": "not satisfied"
  },
  {
    "Molecule Smiles": "CCn1cc(C(=O)O)c(=O)c2cc(F)c(N3CCN(CC(=O)Nc4ccc(C(C)=O)cc4)CC3)cc21",
    "Group": "not satisfied"
  },
  {
    "Molecule Smiles": "CCCCOc1c(N)cc(Cl)cc1C(=O)OCCN(CC)CC",
    "Group": "satisfied"
  }
]

---

- Test system: COLO 205 colon
- Assay Explanation: NCI-60 one-dose screen, 48 h (100 = growth as untreated, 0 = no growth, -100 = all killed)
- Measurement Parameters: 10 µM unless noted
- Experimental: Cells are grown in 96 well plates and exposed to the test compound for 48 hours. Compounds are tested at a single concentration, which is 10^-5 M for most compounds. The reported endpoint is percent growth (GI% or GIPRCNT), where numbers from 0 - 100% represent growth inhibition, and numbers from -100% - 0 represent cell death. For example, a value of 40 represents 60% growth inhibition. A value of 0 means no net growth occurred over the course of the experiment. […]
Compounds without any hit were thinned out: in the full panel of roughly 83,000, 20% have a hit.
So basically: growth at 90% or higher? That is YES. Lower than 90%? That is NO.

[
  {
    "Molecule Smiles": "O=c1c(-c2ccc3c(c2)OCO3)coc2c(CO)c(O)ccc12",
    "Group": "YES"
  },
  {
    "Molecule Smiles": "Cn1c2ccccc2c2ssc(=S)c21",
    "Group": "YES"
  },
  {
    "Molecule Smiles": "O=C1OC(c2ccc(-c3ccccc3)cc2)=C/C1=C/C=C/c1ccccc1",
    "Group": "YES"
  },
  {
    "Molecule Smiles": "COc1ccccc1S(=O)(=O)Nc1ccc2c3c(cc(-c4cnn(C)c4)nc13)C(=O)N2C",
    "Group": "NO"
  }
]

---

- Test system: HCT-116 colon
- Assay Explanation: NCI-60 one-dose screen, 48 h
- Measurement Parameters: 10 µM unless noted
Compounds without any hit were thinned out: in the full panel of roughly 83,000, 20% have a hit. Calls of active or inactive are those of the source. Rule for the calls: active = growth percent below 10; inactive = the rest.
Classes used: active, inactive

[
  {
    "Compound": "COc1ccc(C2CC(c3cc(Cl)c(C)cc3OC)=NN2c2ccc(S(N)(=O)=O)cc2)cc1OC (centres undefined)",
    "Group": "inactive"
  },
  {
    "Compound": "NS(=O)(=O)c1ccc(CCN2C(=O)/C(=C\\c3ccc(Cl)cc3)C=C2c2ccc(Oc3ccccc3)cc2)cc1",
    "Group": "inactive"
  },
  {
    "Compound": "CC(C(=O)O)N1C(N)=NNC1c1ccccc1O (centres undefined)",
    "Group": "inactive"
  },
  {
    "Compound": "Cc1ccc(NC(=O)CN2CCOCC2)cc1Cl",
    "Group": "inactive"
  },
  {
    "Compound": "CC(=O)Nc1ccc(OC(=O)c2ccccc2O)cc1",
    "Group": "inactive"
  },
  {
    "Compound": "CCOC(=O)C1CSC(C)(C(=O)OCC)N1 (centres undefined)",
    "Group": "inactive"
  },
  {
    "Compound": "CCC1CN2C(=N1)c1ccccc1-c1cc(Cl)ccc12 (centres undefined)",
    "Group": "active"
  },
  {
    "Compound": "Cn1c(I)c(C#C[Si](C)(C)C)c(=O)[nH]c1=O",
    "Group": "active"
  },
  {
    "Compound": "Cc1ccc(Cn2cc(COc3ccc4c5ccnc(C)c5n(CCCc5ccccc5)c4c3)nn2)cc1",
    "Group": "inactive"
  },
  {
    "Compound": "Nc1ccc(S(=O)(=O)Nc2ccnn2-c2ccccc2)cc1",
    "Group": "inactive"
  },
  {
    "Compound": "Nc1nc(Cl)c2c(C(F)(F)F)cn(CC3CCNCC3)c2n1",
    "Group": "inactive"
  },
  {
    "Compound": "N#Cc1c2c(c(N)[nH]c1=O)C(=O)NC2(O)c1ccccc1 (centres undefined)",
    "Group": "inactive"
  },
  {
    "Compound": "CCc1ccc(C2=C/C(=C/c3ccc(Cl)cc3)C(=O)N2CCc2ccc(S(N)(=O)=O)cc2)cc1",
    "Group": "inactive"
  },
  {
    "Compound": "O=C(NC(=S)Nc1ccc(Cl)cc1)c1ccccc1",
    "Group": "inactive"
  },
  {
    "Compound": "c1ccc(-c2nc3sc(C(c4ccccc4)c4ccccc4)nn3c2-c2ccccc2)cc1",
    "Group": "inactive"
  },
  {
    "Compound": "CC1(C)N=C(N)N=C(N)N1c1ccc(OCC(=O)Nc2ccccc2)c(Cl)c1",
    "Group": "inactive"
  },
  {
    "Compound": "CN(C)CC/C=C1\\c2ccccc2Sc2ccc(Cl)cc21",
    "Group": "inactive"
  },
  {
    "Compound": "COC(=O)c1ccc2c(c1)Oc1ccc(Cl)cc1-c1cc(C)nn1-2",
    "Group": "inactive"
  },
  {
    "Compound": "C=C1C(=O)O[C@H]2[C@H]1CC/C(COC(=O)c1ccccc1)=C\\CC[C@@]1(C)O[C@@H]21",
    "Group": "active"
  },
  {
    "Compound": "CCOC(=O)C1CN(Cc2ccccc2)C(=O)C1=O (centres undefined)",
    "Group": "inactive"
  },
  {
    "Compound": "Cc1ccc(N(CC2=NCCN2)c2cccc(O)c2)cc1",
    "Group": "inactive"
  },
  {
    "Compound": "COc1ccc(-c2nn(-c3ccc(NC(=O)Nc4cc(C(F)(F)F)cc(C(F)(F)F)c4)cc3)cc2-c2ccncc2)cc1Cl",
    "Group": "active"
  },
  {
    "Compound": "O=C(Cn1c2ccccc2c2ccncc21)N/N=C\\c1ccc2ccccc2c1",
    "Group": "active"
  },
  {
    "Compound": "C=C1C(=O)O[C@H]2[C@H]1CC/C(COC(=O)CCCC(=O)OC/C1=C/CC[C@@]3(C)O[C@H]3[C@H]3OC(=O)C(=C)[C@@H]3CC1)=C\\CC[C@@]1(C)O[C@@H]21",
    "Group": "active"
  },
  {
    "Compound": "COc1ccc(-c2nn(-c3ccc(NC(=O)c4ccc(Cl)c(C(F)(F)F)c4)cc3)cc2-c2ccncc2)cc1Cl",
    "Group": "inactive"
  },
  {
    "Compound": "C[C@]12O[C@H]1[C@H](O)c1c(cc(O)c3c1C(=O)c1cccc(O)c1-3)C2=O",
    "Group": "inactive"
  },
  {
    "Compound": "COc1cc(Nc2ncccc2C(=O)Nc2nc3ccc(F)cc3s2)cc(OC)c1OC",
    "Group": "inactive"
  },
  {
    "Compound": "O=C(C[n+]1cccc(Br)c1)c1ccc2c(c1)CCCC2",
    "Group": "inactive"
  },
  {
    "Compound": "COc1cc(-c2nc(SCC(=O)Nc3ccc(C(C)=O)cc3)[nH]c(=O)c2C#N)cc(OC)c1OC",
    "Group": "active"
  },
  {
    "Compound": "CCC1(C(N)=O)CC2C=CC1CC2 (centres undefined)",
    "Group": "inactive"
  },
  {
    "Compound": "Cn1c2ccccc2c2ssc(=S)c21",
    "Group": "inactive"
  },
  {
    "Compound": "O=C(Nc1ccccc1F)Nc1ccccc1Cl",
    "Group": "inactive"
  },
  {
    "Compound": "CC1(C)CC(=O)C2=C(C1)OC1=C(C(=O)CC(C)(C)C1)C2c1ccc(OCc2cn(-c3ccc(F)cc3F)nn2)cc1",
    "Group": "inactive"
  },
  {
    "Compound": "C=C1C(=O)O[C@H]2[C@H]1CC/C(COC(=O)c1ccc(Br)cc1)=C\\CC[C@@]1(C)O[C@@H]21",
    "Group": "active"
  },
  {
    "Compound": "Cc1cccc(NC(=O)CCc2ccc(N3C(N)=NC(N)=NC3(C)C)cc2)c1",
    "Group": "inactive"
  },
  {
    "Compound": "COc1ccc(/C=N/C2=NNC(C)(c3ccccc3O)N2C(Cc2c[nH]c3ccccc23)C(=O)O)cc1 (centres undefined)",
    "Group": "inactive"
  },
  {
    "Compound": "COc1cc(/C=C2/Oc3cc4occc4c(OC)c3C2=O)ccc1OCC(=O)Nc1ccncc1",
    "Group": "inactive"
  },
  {
    "Compound": "CC(=O)N[C@@H](CNC(=O)c1cc(NC(=O)c2cc(NC(=O)c3cc(NC(=O)c4nccn4C)cn3C)cn2C)cn1C)CC(=O)Nc1cn(C)c(C(=O)Nc2cc(C(=O)Nc3cc(C(=O)Nc4cc(C(=O)NCCCN(C)CCCNC(=O)c5cccc(C(=O)O)c5)n(C)c4)n(C)c3)n(C)c2)n1",
    "Group": "inactive"
  },
  {
    "Compound": "O=C1C(SCCO)=C(SCCO)C(=O)N1c1ccc(-c2ccccc2)cc1",
    "Group": "inactive"
  }
]
